Biological target: T1, human GIP receptor (human, UniProt P48546 22-466)
T1 sequence (looked up): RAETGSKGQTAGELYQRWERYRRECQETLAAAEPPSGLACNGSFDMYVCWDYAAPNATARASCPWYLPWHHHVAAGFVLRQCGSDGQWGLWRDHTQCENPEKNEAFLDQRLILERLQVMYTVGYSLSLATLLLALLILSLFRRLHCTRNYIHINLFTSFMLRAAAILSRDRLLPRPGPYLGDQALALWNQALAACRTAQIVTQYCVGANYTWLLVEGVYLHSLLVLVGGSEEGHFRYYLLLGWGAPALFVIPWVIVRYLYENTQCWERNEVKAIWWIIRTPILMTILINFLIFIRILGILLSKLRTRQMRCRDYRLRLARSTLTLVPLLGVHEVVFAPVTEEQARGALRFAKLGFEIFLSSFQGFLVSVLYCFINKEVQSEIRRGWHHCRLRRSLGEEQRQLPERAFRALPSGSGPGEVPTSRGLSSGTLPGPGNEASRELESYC
Experiment: cell-based or functional assay
Bridges are numbered along the chain shown (N, C = ends). Where no end group is shown, it is not given here. [ ]: non-standard residue; d: D form. The star is where a group is joined. Acetyl(2-(4-imidazolyl)) = O=C(Cc1c[nH]cn1)*; Aib = CC(C)(N)C(=O)O
Recorded measurements of In vitro activity relative to native peptide (%) vs. GIP, one per entry
# value in %; strip the unit string

Worked examples follow.
[Acetyl(2-(4-imidazolyl))][Aib]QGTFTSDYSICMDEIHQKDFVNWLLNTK (bridge 16-20; not fully specified) [triple agonist of SEQ ID NO: 49] | 3.3
{Acetyl(2-(4-imidazolyl))}-[Aib]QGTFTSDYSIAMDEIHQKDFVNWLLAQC (bridge 15-19) [triple agonist of SEQ ID NO: 85] | 0.3
Y[Aib]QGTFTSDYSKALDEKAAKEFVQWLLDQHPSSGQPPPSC (bridge 16-20) [triple agonist of SEQ ID NO: 100] | 118

Consider now this further binder.
Please give the measured In vitro activity relative to native peptide (%) vs. GIP for this binder: H[Aib]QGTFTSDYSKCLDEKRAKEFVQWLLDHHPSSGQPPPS (bridge 16-20) [triple agonist of SEQ ID NO: 65] 11.6

FYI, the data here is from patent US20230302148A1.
